Target: UniProt O43614
Sequence (O43614 1-444): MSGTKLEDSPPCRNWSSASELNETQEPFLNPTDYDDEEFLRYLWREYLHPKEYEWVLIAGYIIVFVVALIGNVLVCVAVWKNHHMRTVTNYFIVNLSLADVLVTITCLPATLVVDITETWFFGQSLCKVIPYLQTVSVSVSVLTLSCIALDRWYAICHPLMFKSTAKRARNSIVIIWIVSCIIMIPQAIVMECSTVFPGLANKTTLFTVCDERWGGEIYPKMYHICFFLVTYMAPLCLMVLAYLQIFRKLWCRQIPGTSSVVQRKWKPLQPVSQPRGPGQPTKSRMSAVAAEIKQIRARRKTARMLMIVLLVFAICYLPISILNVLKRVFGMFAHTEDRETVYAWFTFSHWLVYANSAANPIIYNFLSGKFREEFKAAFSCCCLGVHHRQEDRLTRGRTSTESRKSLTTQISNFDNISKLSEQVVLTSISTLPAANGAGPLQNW
Assay: PathHunter β-Arrestin GPCR antagonist assay, HCRTR2
Assay type: cell-based
Conditions: antagonist mode; agonist challenge at EC80
Measured Endpoint: HCRTR2 (Antagonist) percent inhibition (%)
Provide the reading as a plain figure in %.

Compound String | HCRTR2 (Antagonist) percent inhibition / %
C=C(C)[C@@H]1CCC(C)=C[C@H]1c1c(O)cc(CC)cc1O | 13
CCCc1cc(O)c(C/C=C(\C)CCC=C(C)C)c(O)c1 | 12
C=C(C)[C@@H]1CCC(C)=C[C@H]1c1c(O)cc(C)cc1O | 9

Now let's try a different one.
Prompt line: Entry C=C(C)[C@@H]1CCC(C)=C[C@H]1c1c(O)cc(CCCCC)cc1O : reported HCRTR2 (Antagonist) percent inhibition = ?
Response line: 85

----------
Measured HCRTR1 (Antagonist) percent inhibition, listed per entry for reference.
molecular target: HCRTR1 (Homo sapiens, UniProt O43613); experiment: PathHunter β-Arrestin GPCR antagonist assay, HCRTR1; assay type: cell-based; settings: antagonist mode; agonist challenge at EC80
Sequence (O43613 whole entry): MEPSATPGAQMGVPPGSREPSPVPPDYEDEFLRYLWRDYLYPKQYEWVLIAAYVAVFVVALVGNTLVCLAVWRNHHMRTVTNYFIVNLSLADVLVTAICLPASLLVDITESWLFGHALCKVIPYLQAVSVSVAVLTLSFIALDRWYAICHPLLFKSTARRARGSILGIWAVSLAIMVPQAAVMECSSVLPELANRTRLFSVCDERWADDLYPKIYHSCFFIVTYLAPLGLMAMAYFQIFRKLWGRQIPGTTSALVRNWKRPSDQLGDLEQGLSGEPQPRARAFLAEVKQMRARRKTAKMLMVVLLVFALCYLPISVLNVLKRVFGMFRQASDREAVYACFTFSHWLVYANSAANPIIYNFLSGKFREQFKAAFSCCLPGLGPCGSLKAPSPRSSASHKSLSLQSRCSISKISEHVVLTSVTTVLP
Answer format: value, then unit.

Example results:
Molecule | HCRTR1 (Antagonist) percent inhibition
C=C(C)[C@@H]1CCC(C)=C[C@H]1c1c(O)cc(CC)cc1O | 20%
CCCCCc1cc2c(c(O)c1C(=O)O)C=CC(C)(CCC=C(C)C)O2 (centres unmarked) | 12%
CCCCCc1cc(O)c2c(c1)OC(C)(CCC=C(C)C)C=C2 (centres unmarked) | 98%

Prompt line: Entry CCCc1cc(O)c(C/C=C(\C)CCC=C(C)C)c(O)c1C(=O)O : reported HCRTR1 (Antagonist) percent inhibition = ?
Response line: 3%

Prompt line: Entry C=C(C)[C@@H]1CCC(C)=C[C@H]1c1c(O)cc(C)cc1O : reported HCRTR1 (Antagonist) percent inhibition = ?
Response line: 12%

Prompt line: Entry CCCc1cc(O)c2c(c1)OC(C)(C)[C@@H]1CCC(C)=C[C@@H]21 [THCV, tetrahydrocannabivarin] : reported HCRTR1 (Antagonist) percent inhibition = ?
Response line: 89%

Prompt line: Entry CCCCCc1cc(O)c2c(c1)OC(C)(C)c1ccc(C)cc1-2 : reported HCRTR1 (Antagonist) percent inhibition = ?
Response line: 95%

Prompt line: Entry CCCc1cc(O)c(C/C=C(\C)CCC=C(C)C)c(O)c1 : reported HCRTR1 (Antagonist) percent inhibition = ?
Response line: 44%

Prompt line: Entry CCCCc1cc(O)c(CC=C(C)CCC=C(C)C)c(O)c1 : reported HCRTR1 (Antagonist) percent inhibition = ?
Response line: 84%

Prompt line: Entry C=C(C)[C@@H]1CCC(C)=C[C@H]1c1c(O)cc(CCC)cc1O : reported HCRTR1 (Antagonist) percent inhibition = ?
Response line: 61%

Prompt line: Entry CCCCCc1cc(O)c(C/C=C(\C)CCC=C(C)C)c(O)c1C(=O)O : reported HCRTR1 (Antagonist) percent inhibition = ?
Response line: 8%

----------
target: dopamine receptor DRD5 (Homo sapiens, UniProt P21918); assay: PathHunter β-Arrestin GPCR agonist assay, DRD5; assay type: cell-based; set-up: concentration or dose not given beside the values; settings: agonist mode; dopamine as control
Sequence (P21918 whole entry): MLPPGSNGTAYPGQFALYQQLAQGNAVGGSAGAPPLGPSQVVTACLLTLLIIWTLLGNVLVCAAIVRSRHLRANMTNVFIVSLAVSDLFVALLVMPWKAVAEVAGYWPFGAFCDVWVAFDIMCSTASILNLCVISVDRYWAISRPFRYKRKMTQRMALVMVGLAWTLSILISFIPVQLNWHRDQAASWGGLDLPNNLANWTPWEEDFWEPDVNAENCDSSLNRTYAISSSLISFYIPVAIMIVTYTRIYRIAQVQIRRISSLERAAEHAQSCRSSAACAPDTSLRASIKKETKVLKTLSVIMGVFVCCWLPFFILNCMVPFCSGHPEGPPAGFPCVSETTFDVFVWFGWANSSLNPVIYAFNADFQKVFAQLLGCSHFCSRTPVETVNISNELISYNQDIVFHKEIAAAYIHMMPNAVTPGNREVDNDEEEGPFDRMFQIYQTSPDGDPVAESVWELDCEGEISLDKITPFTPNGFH
Labelling: DRD5 (Agonist) percent activity reported below 5% becomes T; at or above becomes F.

Example entries begin here.
Molecule | Assigned Label
CCCCCc1cc(O)c(C/C=C(\C)CCC=C(C)C)c(O)c1 [CBG, cannabigerol] | F
CCCCCc1cc(O)c(C/C=C(\C)CCC=C(C)C)c(O)c1C(=O)O [CBGA, cannabigerolic acid] | T

Prompt line: Lab note: DRD5 (Agonist) percent activity threshold 5%. Does this molecule come in strictly under it? C=C(C)[C@@H]1CCC(C)=C[C@H]1c1c(O)cc(CC)cc1O [CBD-C2, cannabidol-C2]
Response line: T

Prompt line: Lab note: DRD5 (Agonist) percent activity threshold 5%. Does this molecule come in strictly under it? CCCc1cc(O)c2c(c1)OC(C)(C)[C@@H]1CCC(C)=C[C@@H]21 [THCV, tetrahydrocannabivarin]
Response line: F

Prompt line: Lab note: DRD5 (Agonist) percent activity threshold 5%. Does this molecule come in strictly under it? CCCCCc1cc2c(c(O)c1C(=O)O)C1C3C(CCC3(C)O2)C1(C)C (stereo not drawn) [CBLA, cannabicyclolic acid]
Response line: T

Prompt line: Lab note: DRD5 (Agonist) percent activity threshold 5%. Does this molecule come in strictly under it? C=C(C)[C@@H]1CCC(C)=C[C@H]1c1c(O)cc(CCC)cc1O [CBDV, cannabidivarin]
Response line: F

Prompt line: Lab note: DRD5 (Agonist) percent activity threshold 5%. Does this molecule come in strictly under it? CCCCCc1cc(O)c2c(c1)OC(C)(C)c1ccc(C)cc1-2 [CBN, cannabinol]
Response line: T

Prompt line: Lab note: DRD5 (Agonist) percent activity threshold 5%. Does this molecule come in strictly under it? CCCCCc1cc(O)c2c(c1)OC(C)(CCC=C(C)C)C=C2 (stereo not drawn) [CBC, cannabichromene]
Response line: F

Prompt line: Lab note: DRD5 (Agonist) percent activity threshold 5%. Does this molecule come in strictly under it? CCCCc1cc(O)c(C/C=C(\C)CCC=C(C)C)c(O)c1C(=O)O [CBGA-C4, cannabigerolic acid butyl]
Response line: T

Prompt line: Lab note: DRD5 (Agonist) percent activity threshold 5%. Does this molecule come in strictly under it? C=C(C)[C@@H]1CCC(C)=C[C@H]1c1c(O)cc(CCC)c(C(=O)O)c1O [CBDVA, cannabidivarinic acid]
Response line: T

Prompt line: Lab note: DRD5 (Agonist) percent activity threshold 5%. Does this molecule come in strictly under it? CCCc1cc(O)c(C/C=C(\C)CCC=C(C)C)c(O)c1C(=O)O [CBGVA, cannabigerovarinic acid]
Response line: T

----------
Target: HCRTR2 (Homo sapiens, UniProt O43614)
Sequence (O43614 1-444): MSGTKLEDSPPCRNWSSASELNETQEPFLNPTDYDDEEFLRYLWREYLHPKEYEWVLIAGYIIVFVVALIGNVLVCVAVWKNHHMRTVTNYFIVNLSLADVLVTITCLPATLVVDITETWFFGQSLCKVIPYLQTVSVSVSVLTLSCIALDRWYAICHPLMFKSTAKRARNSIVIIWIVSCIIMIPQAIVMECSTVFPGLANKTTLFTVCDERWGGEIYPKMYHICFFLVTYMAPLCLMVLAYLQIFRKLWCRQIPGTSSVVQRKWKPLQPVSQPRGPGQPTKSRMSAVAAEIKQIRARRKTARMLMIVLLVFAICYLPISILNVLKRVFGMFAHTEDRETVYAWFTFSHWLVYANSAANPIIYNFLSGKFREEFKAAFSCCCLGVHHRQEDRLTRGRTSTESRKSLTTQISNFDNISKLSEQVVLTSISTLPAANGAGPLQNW
Assay: PathHunter β-Arrestin GPCR agonist assay, HCRTR2
Assay type: cell-based
Parameters: concentration or dose not given beside the values
Conditions: agonist mode; Orexin A as control
Measured Endpoint: HCRTR2 (Agonist) percent activity (%)
Provide the reading as a plain figure in %.

Example results:
Compound String | HCRTR2 (Agonist) percent activity [%]
CCCCCc1cc(O)c(C/C=C(\C)CCC=C(C)C)c(O)c1 | 4
CCCCc1cc(O)c(CC=C(C)CCC=C(C)C)c(O)c1 | 6
CCCc1cc(O)c(C/C=C(\C)CCC=C(C)C)c(O)c1C(=O)O | 1
C=C(C)[C@@H]1CCC(C)=C[C@H]1c1c(O)cc(CCCCC)cc1O | 5
CCCc1cc(O)c(C/C=C(\C)CCC=C(C)C)c(O)c1 | 2

Prompt line: Entry C=C(C)[C@@H]1CCC(C)=C[C@H]1c1c(O)cc(CCCCC)c(C(=O)O)c1O : reported HCRTR2 (Agonist) percent activity = ?
Response line: 0

Prompt line: Entry CCCCCc1cc(O)c2c(c1)OC(C)(C)c1ccc(C)cc1-2 : reported HCRTR2 (Agonist) percent activity = ?
Response line: 7

Prompt line: Entry C=C(C)[C@@H]1CCC(C)=C[C@H]1c1c(O)cc(C)cc1O : reported HCRTR2 (Agonist) percent activity = ?
Response line: 1
